# tgt: Factor X, P00742
# Sequence (P00742 whole entry, looked up): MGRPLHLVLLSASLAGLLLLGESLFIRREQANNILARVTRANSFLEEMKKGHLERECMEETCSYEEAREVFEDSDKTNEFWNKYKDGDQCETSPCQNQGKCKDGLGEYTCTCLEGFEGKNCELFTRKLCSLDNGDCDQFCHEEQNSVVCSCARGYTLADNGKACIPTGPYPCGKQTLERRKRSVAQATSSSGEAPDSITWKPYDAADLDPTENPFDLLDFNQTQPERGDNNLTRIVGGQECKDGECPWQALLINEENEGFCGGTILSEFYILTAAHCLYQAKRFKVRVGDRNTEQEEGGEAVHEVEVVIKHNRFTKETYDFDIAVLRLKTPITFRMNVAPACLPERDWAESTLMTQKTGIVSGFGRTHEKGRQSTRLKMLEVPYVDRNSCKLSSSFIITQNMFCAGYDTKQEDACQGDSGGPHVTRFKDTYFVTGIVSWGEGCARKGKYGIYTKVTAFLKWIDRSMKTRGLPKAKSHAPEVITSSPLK
KM (FX activation by FIXa in Xase complex with FVIIIa, PC/PS vesicles, Ca2+) values for the proteins below.
Note: state the figure and append the unit.

In: Endpoint output: KM (FX activation by FIXa in Xase complex with FVIIIa, PC/PS vesicles, Ca2+) of FIXa R338E/T343R/R403E/E410N (protein) chain 1: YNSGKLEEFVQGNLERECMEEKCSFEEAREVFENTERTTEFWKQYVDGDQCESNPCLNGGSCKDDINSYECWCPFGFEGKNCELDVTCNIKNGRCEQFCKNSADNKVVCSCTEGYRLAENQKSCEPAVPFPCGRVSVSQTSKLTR chain 2: VVGGEDAKPGQFPWQVVLNGKVDAFCGGSIVNEKWIVTAAHCVETGVKITVVAGEHNIEETEHTEQKRNVIRIIPHHNYNAAINKYNHDIALLELDEPLVLNSYVTPICIADKEYTNIFLKFGSGYVSGWGRVFHKGRSALVLQYLRVPLVDRATCLESTKFRIYNNMFCAGFHEGGRDSCQGDSGGPHVTEVEGTSFLTGIISWGEECAMKGKYGIYTKVSEYVNWIKNKTKLT . Value?
Out: 0.0347 µM

In: Endpoint output: KM (FX activation by FIXa in Xase complex with FVIIIa, PC/PS vesicles, Ca2+) of FIXa Y155F/R318Y/R338E/N346D/R403E/E410N (protein) chain 1: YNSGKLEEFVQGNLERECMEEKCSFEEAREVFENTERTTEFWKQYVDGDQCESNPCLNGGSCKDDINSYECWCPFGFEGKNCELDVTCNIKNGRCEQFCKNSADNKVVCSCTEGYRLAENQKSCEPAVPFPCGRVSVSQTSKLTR chain 2: VVGGEDAKPGQFPWQVVLNGKVDAFCGGSIVNEKWIVTAAHCVETGVKITVVAGEHNIEETEHTEQKRNVIRIIPHHNYNAAINKYNHDIALLELDEPLVLNSYVTPICIADKEYTNIFLKFGSGYVSGWGRVFHKGYSALVLQYLRVPLVDRATCLESTKFTIYDNMFCAGFHEGGRDSCQGDSGGPHVTEVEGTSFLTGIISWGEECAMKGKYGIYTKVSEYVNWIKNKTKLT . Value?
Out: 0.1 µM

In: Endpoint output: KM (FX activation by FIXa in Xase complex with FVIIIa, PC/PS vesicles, Ca2+) of FIXa Y155F/K247N/N249S/N260S/R318Y/R338E/R403E/E410N (protein) chain 1: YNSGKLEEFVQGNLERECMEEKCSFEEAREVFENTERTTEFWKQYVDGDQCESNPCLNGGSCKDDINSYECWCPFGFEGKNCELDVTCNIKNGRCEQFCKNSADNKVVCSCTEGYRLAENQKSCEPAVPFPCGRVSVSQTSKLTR chain 2: VVGGEDAKPGQFPWQVVLNGKVDAFCGGSIVNEKWIVTAAHCVETGVKITVVAGEHNIEETEHTEQNRSVIRIIPHHNYSAAINKYNHDIALLELDEPLVLNSYVTPICIADKEYTNIFLKFGSGYVSGWGRVFHKGYSALVLQYLRVPLVDRATCLESTKFTIYNNMFCAGFHEGGRDSCQGDSGGPHVTEVEGTSFLTGIISWGEECAMKGKYGIYTKVSEYVNWIKNKTKLT . Value?
Out: 0.0954 µM

In: Endpoint output: KM (FX activation by FIXa in Xase complex with FVIIIa, PC/PS vesicles, Ca2+) of FIXa Y155F/K228N/K247N/N249S/R318Y/R338E/R403E/E410N (protein) chain 1: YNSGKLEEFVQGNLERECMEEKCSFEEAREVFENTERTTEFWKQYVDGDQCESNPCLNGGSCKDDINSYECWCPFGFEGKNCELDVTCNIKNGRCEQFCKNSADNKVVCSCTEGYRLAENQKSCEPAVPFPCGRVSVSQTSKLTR chain 2: VVGGEDAKPGQFPWQVVLNGKVDAFCGGSIVNEKWIVTAAHCVETGVNITVVAGEHNIEETEHTEQNRSVIRIIPHHNYNAAINKYNHDIALLELDEPLVLNSYVTPICIADKEYTNIFLKFGSGYVSGWGRVFHKGYSALVLQYLRVPLVDRATCLESTKFTIYNNMFCAGFHEGGRDSCQGDSGGPHVTEVEGTSFLTGIISWGEECAMKGKYGIYTKVSEYVNWIKNKTKLT . Value?
Out: 0.0454 µM

In: Endpoint output: KM (FX activation by FIXa in Xase complex with FVIIIa, PC/PS vesicles, Ca2+) of FIXa Y155F/R318Y/R338E/T343R/E410N (protein) chain 1: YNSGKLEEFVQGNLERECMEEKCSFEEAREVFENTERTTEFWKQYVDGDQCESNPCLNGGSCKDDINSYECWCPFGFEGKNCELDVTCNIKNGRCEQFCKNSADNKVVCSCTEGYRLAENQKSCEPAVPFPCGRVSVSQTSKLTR chain 2: VVGGEDAKPGQFPWQVVLNGKVDAFCGGSIVNEKWIVTAAHCVETGVKITVVAGEHNIEETEHTEQKRNVIRIIPHHNYNAAINKYNHDIALLELDEPLVLNSYVTPICIADKEYTNIFLKFGSGYVSGWGRVFHKGYSALVLQYLRVPLVDRATCLESTKFRIYNNMFCAGFHEGGRDSCQGDSGGPHVTEVEGTSFLTGIISWGEECAMKGKYGIYTKVSRYVNWIKNKTKLT . Value?
Out: 0.0256 µM

In: Endpoint output: KM (FX activation by FIXa in Xase complex with FVIIIa, PC/PS vesicles, Ca2+) of FIXa Y155F/N260S/R318Y/R338E/R403E/E410N (protein) chain 1: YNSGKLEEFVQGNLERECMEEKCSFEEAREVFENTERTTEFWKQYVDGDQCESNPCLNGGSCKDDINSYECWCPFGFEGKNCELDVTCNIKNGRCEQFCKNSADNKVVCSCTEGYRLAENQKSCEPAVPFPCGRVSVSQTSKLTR chain 2: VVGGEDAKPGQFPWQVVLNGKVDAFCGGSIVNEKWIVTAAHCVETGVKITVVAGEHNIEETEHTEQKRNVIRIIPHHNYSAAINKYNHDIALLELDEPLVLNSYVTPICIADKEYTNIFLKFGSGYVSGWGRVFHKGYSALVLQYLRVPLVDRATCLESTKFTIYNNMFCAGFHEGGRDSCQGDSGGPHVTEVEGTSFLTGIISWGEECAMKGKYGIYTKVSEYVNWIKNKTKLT . Value?
Out: 0.0839 µM

In: Endpoint output: KM (FX activation by FIXa in Xase complex with FVIIIa, PC/PS vesicles, Ca2+) of FIXa R318Y/R338E/T412A (protein) chain 1: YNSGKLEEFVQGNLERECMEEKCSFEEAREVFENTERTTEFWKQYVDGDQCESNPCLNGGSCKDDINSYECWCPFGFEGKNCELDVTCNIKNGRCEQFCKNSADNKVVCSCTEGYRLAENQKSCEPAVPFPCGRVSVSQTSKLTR chain 2: VVGGEDAKPGQFPWQVVLNGKVDAFCGGSIVNEKWIVTAAHCVETGVKITVVAGEHNIEETEHTEQKRNVIRIIPHHNYNAAINKYNHDIALLELDEPLVLNSYVTPICIADKEYTNIFLKFGSGYVSGWGRVFHKGYSALVLQYLRVPLVDRATCLESTKFTIYNNMFCAGFHEGGRDSCQGDSGGPHVTEVEGTSFLTGIISWGEECAMKGKYGIYTKVSRYVNWIKEKAKLT . Value?
Out: 0.0235 µM
